Entry source: patent US20250320184A1

# assayed target: SARM1 (50-724) (Homo sapiens, UniProt Q6SZW1)
# Sequence (Q6SZW1 50-724): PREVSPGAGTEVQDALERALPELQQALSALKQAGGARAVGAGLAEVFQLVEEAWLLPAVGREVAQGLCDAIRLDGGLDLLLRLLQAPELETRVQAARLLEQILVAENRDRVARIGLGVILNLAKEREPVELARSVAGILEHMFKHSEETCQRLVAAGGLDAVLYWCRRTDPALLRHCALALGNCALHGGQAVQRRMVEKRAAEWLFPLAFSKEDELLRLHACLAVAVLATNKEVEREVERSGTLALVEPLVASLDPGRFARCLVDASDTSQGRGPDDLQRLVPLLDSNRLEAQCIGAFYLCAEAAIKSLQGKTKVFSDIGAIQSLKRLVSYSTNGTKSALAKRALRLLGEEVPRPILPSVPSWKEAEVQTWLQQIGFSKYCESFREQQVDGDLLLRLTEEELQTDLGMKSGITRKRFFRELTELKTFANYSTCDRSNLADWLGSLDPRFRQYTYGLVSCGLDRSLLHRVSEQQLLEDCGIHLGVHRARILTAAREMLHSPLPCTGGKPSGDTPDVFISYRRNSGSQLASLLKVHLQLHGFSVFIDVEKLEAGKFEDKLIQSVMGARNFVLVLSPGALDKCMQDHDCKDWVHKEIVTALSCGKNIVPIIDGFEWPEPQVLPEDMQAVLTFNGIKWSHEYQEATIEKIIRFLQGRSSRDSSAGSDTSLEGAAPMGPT
# assay comment: biochemical
observation type: IC50

>>> result("Cc1n[nH]c(=O)c2cc(N[C@@H](C)c3c(Cl)ccc(F)c3Cl)ccc12 (single isomer, unassigned)")
"< 100 nM"
>>> result("Cc1c2c(F)cc(NC(C)c3nc(Cl)c(Cl)s3)cc2nn1CC(N)=O (single isomer, unassigned) [Compound 391]")
"< 100 nM"

Proceed to the following item.
Recorded IC50 for Cc1sc(C(C)Nc2ccc3c(C)n(CC(N)=O)nc3c2)nc1Cl (single isomer, unassigned) [Compound 381] , please?
> 1000 nM

###

# assayed target: SARM1 (50-724) (Homo sapiens)
# assay comment: biochemical
observation type: IC50

Worked set:
>>> result("Cn1ncc2ccc(NS(=O)(=O)c3cccc(Cl)c3Cl)cc21")
"100 to 500 nM"
>>> result("Cc1c(F)cccc1S(=O)(=O)Nc1ccc2c(c1)CN(C(=O)OC(C)(C)C)CC2")
"> 1000 nM"
>>> result("Cc1cc(C)c(S(=O)(=O)Nc2ccc3c(c2)C(=O)NCC3)c(C)c1 [Example 10A]")
"500 to 1000 nM"
>>> result("CC(Nc1ccc2cc[nH]c(=O)c2c1)c1ccc(F)c(Cl)c1Cl (racemic)")
"< 100 nM"
>>> result("CC(Nc1ccc2c(c1)C(=O)NCC2)c1cnc(Cl)c(Cl)c1 (racemic)")
"500 to 1000 nM"

// lookup IC50 for `Cc1ccnc2cc(NS(=O)(=O)c3cccc(Cl)c3Cl)ccc12`
100 to 500 nM

###

# assayed target: SARM1 (50-724) (Homo sapiens, UniProt Q6SZW1)
# assay comment: biochemical
IC50 overview

For the molecule Cc1n[nH]c(=O)c2cc(NC(C)c3c(Cl)ccc(F)c3Cl)ccc12 (racemic) , what IC50 is on record?
< 100 nM

Using the record for `O=S(=O)(Nc1ccc2cccnc2c1)c1cccc(Cl)c1Cl` , report its IC50.
< 100 nM

Fill blank: measured IC50 of the molecule `CC1(C)C(=O)N(CCO)c2cc(NS(=O)(=O)c3cccc(Cl)c3Cl)ccc21` is ____.
< 100 nM

###

# assayed target: SARM1 (50-724) (Homo sapiens, UniProt Q6SZW1)
# assay comment: biochemical
observation type: IC50

>>> result("Cc1cn(CC(N)=O)c(=O)c2nc(NC(C)c3nn(C)c(Cl)c3Cl)ccc12 (racemic)")
"< 100 nM"

I'd like to know its IC50. The compound in question is Cc1n[nH]c(=O)c2nc(NC(C)c3c(Cl)ccc(F)c3Cl)ccc12 (racemic)
< 100 nM

###

# assayed target: SARM1 (50-724) (Homo sapiens, UniProt Q6SZW1)
# assay comment: biochemical
Attribute: IC50

Look over these answered cases.
>>> result("CC1(C)CNc2cc(NS(=O)(=O)c3cccc(Cl)c3Cl)ccc21")
"< 100 nM"
>>> result("O=c1[nH]cc(Cl)c2ccc(NS(=O)(=O)c3cccc(Cl)c3Cl)cc12")
"< 100 nM"
>>> result("CC1(C)C(=O)N(Cc2ccncc2)c2cc(NS(=O)(=O)c3cccc(Cl)c3Cl)ccc21")
"< 100 nM"
>>> result("CCC(Nc1ccc2c(Cl)n[nH]c(=O)c2c1)c1nc(Cl)c(Cl)s1 (racemic)")
"< 100 nM"
>>> result("CC(Nc1ccc2cc[nH]c(=O)c2c1)c1nc(Cl)c(Cl)n1C (racemic)")
"100 to 500 nM"

So what IC50 did CC(Nc1ccc2c(c1)NC(=O)C2(C)C)c1cncc(Cl)c1Cl (racemic) get with SARM1 (50-724) (Homo sapiens, UniProt Q6SZW1)?
< 100 nM

// fetch SARM1 (50-724) (Homo sapiens, UniProt Q6SZW1) IC50 for `Cc1c(F)cccc1S(=O)(=O)Nc1ccc2c(c1)CCC(=O)N2`
> 1000 nM

###

# assayed target: SARM1 (50-724) (Homo sapiens, UniProt Q6SZW1)
# assay comment: biochemical
observation type: IC50

Some solved cases for reference:
>>> result("O=c1[nH]ccc2ccc(NS(=O)(=O)c3ccc(F)c(Cl)c3Cl)cc12")
"< 0.1 µM"
>>> result("CC(Nc1ccc2c(c1)N(C(=O)CC(N)=O)CC2(C)C)c1sc(Cl)nc1Cl (racemic)")
"< 0.1 µM"
>>> result("CC1(C)NC(=O)c2cc(NS(=O)(=O)c3cccc(Cl)c3Cl)ccc21")
"< 0.1 µM"
>>> result("O=C1NCCc2ccc(NC(c3ccccc3)c3ccccc3)cc21")
"> 1 µM"

Item COc1nccc2ccc(NC(C)c3nc4c(s3)CN(C(=O)OC(C)(C)C)CC4)cc12 (racemic) has what recorded IC50?
0.1 to 0.5 µM

# query: IC50 of entry Cc1nc(C(C)Nc2ccc3nc[nH]c(=O)c3c2)sc1Cl (racemic)
< 0.1 µM

Report IC50 for CC(Nc1ccc2c(c1)C(=O)N(CC(N)=O)C2(C)C)c1nc(Cl)c(Cl)s1 (single isomer, unassigned) [Compound 320] please.
< 0.1 µM

What measured IC50 goes with `O=c1[nH]ccc2ccc(NS(=O)(=O)c3cccc(Cl)c3Cl)cc12` ?
< 0.1 µM

What value of IC50 has been recorded for this entry: Cc1nn(C(=O)c2ccncc2)c2cc(NC(C)c3nc(Cl)c(Cl)s3)ccc12 (racemic)
< 0.1 µM

Would you kindly share the measured IC50 for CC(Nc1ccc2c(c1)nc(C(N)=O)n2C)c1c(Cl)ccc(F)c1Cl (racemic) ?
< 0.1 µM

Query (molecule): `Cc1c(F)cccc1S(=O)(=O)Nc1ccc2c(c1)NC(=O)CC2` ; field requested: IC50
0.1 to 0.5 µM

Find the recorded IC50 belonging to CC(Nc1ccc2c(c1)C(=O)N(C(C)C(N)=O)C2(C)C)c1nc(Cl)c(Cl)s1 (mixture of isomers) and report it.
< 0.1 µM

Fill in the blank: the reported IC50 of `CC1(C)C(=O)N(CCCC(N)=O)c2cc(NS(=O)(=O)c3cccc(Cl)c3Cl)ccc21` is ____.
< 0.1 µM

###

Measured IC50 accompanies every entry in the list below.
# assayed target: SARM1 (50-724) (Homo sapiens)
# assay comment: biochemical

Solved entries:
>>> result("CC(Nc1ccc2c(c1)c(C(N)=O)nn2C)c1nc(Cl)c(Cl)s1 (racemic)")
"< 100 nM"
>>> result("CC1(C)CN(C(=O)C2CC2)c2cc(NS(=O)(=O)c3cccc(Cl)c3Cl)ccc21")
"< 100 nM"

# input for lookup
I'd like to know its IC50. The compound in question is CC(Nc1ccc2cc[nH]c(=O)c2c1)c1nn(C)c(Cl)c1Cl (racemic)
< 100 nM

###

# assayed target: SARM1 (50-724) (Homo sapiens)
# assay comment: biochemical
pIC50: −log10 of the molar value.
observation type: pIC50

Some compounds with recorded pIC50:
>>> result("Cc1c(F)cccc1S(=O)(=O)Nc1cccc(N2CCCC2=O)c1")
"< 6.00"
>>> result("CC(Nc1ccc2cc[nH]c(=O)c2c1)c1nc(Cl)sc1Cl (racemic)")
"6.30 to 7.00"
>>> result("CC(Nc1ccc2cn[nH]c(=O)c2c1)c1c(Cl)ccc(F)c1Cl (stereo not shown)")
"> 7.00"

Look at this compound and give its reported pIC50. `O=S(=O)(Nc1ccc2c(Cl)n[nH]c2c1)c1cccc(Cl)c1Cl`
> 7.00

Need pIC50 of CC(Nc1cccc(-c2cccnn2)c1)c1cccc(Cl)c1Cl (racemic) , thanks.
< 6.00

Given the compound `Cc1c(F)cccc1S(=O)(=O)Nc1cccc(-c2ccccn2)c1` , what is its reported pIC50?
6.00 to 6.30

# query: pIC50 of entry `Cc1c(F)cccc1S(=O)(=O)Nc1cccc(-c2cscn2)c1`
6.00 to 6.30

Param item = Cc1c2ccc(NC(C)c3nc(Cl)c(Cl)s3)cc2nn1CC(N)=O (racemic) [Compound 312A] ; retrieve measured pIC50.
> 7.00

Look up pIC50: CCC(Nc1ccc2cc[nH]c(=O)c2c1)c1cccc(Cl)c1Cl (racemic)
> 7.00

# query: pIC50 of entry CC(Nc1cc(F)c2nc[nH]c(=O)c2c1)c1nsc(Cl)c1Cl (racemic)
> 7.00

Given the compound CC(Nc1cc(F)c2c(c1)C(=O)NC2(C)C)c1nc(Cl)c(Cl)s1 (racemic) , what is its reported pIC50?
> 7.00

Bench note: what pIC50 did `Cc1cccc(F)c1S(=O)(=O)Nc1ccc2c(c1)C(=O)NCC2` show?
< 6.00

Look up pIC50 for this compound: CC(Nc1ccc2c(C(F)F)n(CC(N)=O)nc2c1)c1c(F)ccc(Cl)c1Cl (racemic)
> 7.00

Which pIC50 value belongs to `O=S(=O)(Nc1ccc2sc(Cl)nc2c1)c1cccc(Cl)c1Cl` ?
6.30 to 7.00

# pIC50 lookup, item `CC(C)c1c[nH]c(=O)c2cc(NS(=O)(=O)c3cccc(Cl)c3Cl)ccc12`
< 6.00

What does the record list as pIC50 for Cc1c2ccc(NC(C)c3snc(Cl)c3Cl)cc2nn1CC(N)=O (single isomer, unassigned) [Compound 341B] ?
< 6.00

Quick one: pIC50 for `Cc1c(F)cccc1S(=O)(=O)Nc1ccc2c(c1)CC(=O)NC2` ?
< 6.00

Can you share its pIC50? I mean this compound: CC(Nc1ccc2nc[nH]c(=O)c2c1)c1c(Cl)ccc(F)c1Cl (single isomer, unassigned) [Example 201A]
< 6.00

# pIC50 lookup, item `O=c1[nH]cnc2ccc(NS(=O)(=O)c3c(Cl)ccc(Cl)c3Cl)cc12`
> 7.00

Which pIC50 value belongs to `O=C1CCCc2ccc(NS(=O)(=O)c3cccc(Cl)c3Cl)cc21` ?
> 7.00

Name the recorded pIC50 for Cc1nc(C(C)Nc2ccc3cc[nH]c(=O)c3c2)sc1C (racemic) .
> 7.00

State the recorded pIC50 for this entry: CC(Nc1ccc2cc[nH]c(=O)c2c1)c1c(Cl)ccc(Cl)c1Cl (racemic)
> 7.00

Suppose we examine the compound C[C@@H](Nc1ccc2c(c1)NC(=O)C2(C)C)c1nc(Cl)c(Cl)s1 (single isomer, unassigned) ; what pIC50 value has been reported?
> 7.00

Fill in: pIC50 of `CC(=O)N1CC(C)(C)c2ccc(NS(=O)(=O)c3cccc(Cl)c3Cl)cc21` is ___
> 7.00

State the recorded pIC50 for this entry: Cc1c(Cl)c(C(C)Nc2ccc3cc[nH]c(=O)c3c2)nn1C (single isomer, unassigned) [Compound 226B]
> 7.00

What does the record list as pIC50 for CC(Nc1ccc2cc[nH]c(=O)c2c1)c1nn(C2CCC2)c(Cl)c1Cl (stereo not shown) ?
> 7.00

Name the recorded pIC50 for CC(Nc1ccc2ccccc2n1)c1cccc(Cl)c1Cl (racemic) .
< 6.00

Endpoint output: pIC50 of `Cc1c(Br)cccc1S(=O)(=O)Nc1ccc2cc[nH]c(=O)c2c1` . Value?
> 7.00
